System: T-47D breast
Experiment: NCI tumour cell line growth inhibition, 48 h
Where a SMILES comes first, the peptide text is derived from it. The star is where a group is joined. Cbz = O=C(OCc1ccccc1)*
Quantity Name: TGI (µM)

{"columns": ["Molecule", "Output Unit", "Value Modifier", "Measured Value"],
 "data": [
  ["OC(CNc1ccnc2cc(Cl)ccc12)CNC1CCCCC1 (stereo unspecified)", "µM", "=", 18.7],
  ["CC(C)(C)N(Cc1ccoc1)C(=O)/C=C\\S(=O)c1ccccc1 (stereo unspecified)", "µM", "=", 38.2],
  ["OC(CNC1CCCC1)Cn1c2ccccc2c2ccccc21 (stereo unspecified)", "µM", ">", 100],
  ["O/N=C1\\CCc2cc3c(cc21)CCC3", "µM", ">", 100],
  ["CN(C)/C=C/c1nnnn1-c1ccc(I)cc1", "µM", "=", 44],
  ["Cc1nn(-c2nc3ccccc3[nH]2)c2c1C(c1ccc3c(c1)OCO3)CC(=O)N2 (stereo unspecified)", "µM", ">", 39.6],
  ["COc1cc(-c2oc(C=Nc3ccccc3)c([N+](=O)[O-])c2-c2ccc(O)c(OC)c2)ccc1O", "µM", ">", 100],
  ["CC(=O)OC[C@@H](OC(C)=O)[C@@H](OC(C)=O)[C@H]1OC[C@@H]2C[C@H]([C@H]1OC(C)=O)N(Cc1ccccc1)O2", "µM", ">", 100],
  ["COc1ccc2c(c1)CCCN1Cc3ccccc3CC21 (stereo unspecified)", "µM", ">", 100],
  ["CC1OC(OC2C(O[C@@H]3C[C@@H]4CC[C@@H]5[C@H](CC[C@]6(C)C7C(C[C@@H]56)O[C@]5(CC[C@@H](C)CO5)[C@H]7C)[C@@]4(C)C[C@H]3O)OC(CO)C(O)C2O)C(O)C(O)C1O (stereo partly specified)", "µM", "=", 3.7],
  ["NCCCCN(Cc1nc2ccccc2[nH]1)[C@H]1CCCc2cccnc21", "µM", ">", 100],
  ["O=C(CN1CCOCC1)Nc1ccc2c(c1)C1Oc3ccccc3CC1CO2 (stereo unspecified)", "µM", ">", 100],
  ["CN(C)CCCNc1ccc2nnn3c4ccc(OC(=O)c5ccc([N+](=O)[O-])cc5)cc4c(=O)c1c23", "µM", "=", 88.5],
  ["OC(C/C(=N\\N=C(/CC(O)(C(F)(F)F)C(F)(F)F)c1ccccc1)c1ccccc1)(C(F)(F)F)C(F)(F)F", "µM", ">", 10],
  ["C=C1C(=O)O[C@H]2[C@H]1CC/C(CNS(=O)(=O)c1cccc3ccccc13)=C\\CC[C@@]1(C)O[C@@H]21", "µM", "=", 6.51],
  ["CC1=C(C(=O)Nc2ccc(F)c(Cl)c2)C(c2cccc(Oc3ccccc3)c2)NC(=O)N1 (stereo unspecified)", "µM", "=", 34.6],
  ["O=C(CN1C(=O)c2ccccc2C1=O)C(O)CN1C(=O)c2ccccc2C1=O (stereo unspecified)", "µM", ">", 100],
  ["OCCNCCNc1c2ccccc2nc2oc3ccccc3c12", "µM", "=", 38.4],
  ["CS(=O)(=O)Nc1cc(-c2ccc3ncnc(Nc4ccc5c(cnn5Cc5ccccc5F)c4)c3c2)cnc1Cl", "µM", "=", 3.14],
  ["O=C(OC(/C=C/c1ccccc1)P1(=O)N(Cc2ccccc2)[C@@H]2CCCC[C@H]2N1Cc1ccccc1)c1ccccc1 (stereo partly specified)", "µM", ">", 100],
  ["COC(=O)/C(=C\\c1cn(C(C)=O)c2ccccc12)P(=O)(OC)OC", "µM", "=", 33.1],
  ["S=C(Nc1ccccc1)N(Cc1ccccc1)c1ccccc1", "µM", ">", 100],
  ["O=Cc1ccc(O)c2ncccc12", "µM", ">", 76],
  ["CCOC(=O)C(CC(=O)OC)NC(=O)C(CC(=O)OC)NC(=O)C(CC(=O)OC)NC(=O)C(CC(=O)OC)NC(=O)OCc1ccccc1 (stereo unspecified) (Cbz-D(OMe)D(OMe)D(OMe)D(OMe)-OEt; configuration not given here)", "µM", ">", 100],
  ["COc1cc(/C=C/C(=O)c2c(C)n([O-])c3ccc(Cl)cc3[n+]2=O)cc(OC)c1OC", "µM", ">", 100],
  ["CCCCCCCCCCCC[n+]1ccc(C(N)=O)cc1", "µM", "=", 11.8]
]}
